target: electric eel cholinesterase (Type V) (Electrophorus electricus, UniProt O42275); experiment: Inhibition of electric eel cholinesterase (Type V) by substituted benzoyl cholines (method of Rappaport et al.); assay type: biochemical; details: 40 min; Bromomethyl- reagent type, concentration 10^-^4 M; incubated with enzyme at room temperature (22°) for 40 minutes
Sequence (O42275 24-633): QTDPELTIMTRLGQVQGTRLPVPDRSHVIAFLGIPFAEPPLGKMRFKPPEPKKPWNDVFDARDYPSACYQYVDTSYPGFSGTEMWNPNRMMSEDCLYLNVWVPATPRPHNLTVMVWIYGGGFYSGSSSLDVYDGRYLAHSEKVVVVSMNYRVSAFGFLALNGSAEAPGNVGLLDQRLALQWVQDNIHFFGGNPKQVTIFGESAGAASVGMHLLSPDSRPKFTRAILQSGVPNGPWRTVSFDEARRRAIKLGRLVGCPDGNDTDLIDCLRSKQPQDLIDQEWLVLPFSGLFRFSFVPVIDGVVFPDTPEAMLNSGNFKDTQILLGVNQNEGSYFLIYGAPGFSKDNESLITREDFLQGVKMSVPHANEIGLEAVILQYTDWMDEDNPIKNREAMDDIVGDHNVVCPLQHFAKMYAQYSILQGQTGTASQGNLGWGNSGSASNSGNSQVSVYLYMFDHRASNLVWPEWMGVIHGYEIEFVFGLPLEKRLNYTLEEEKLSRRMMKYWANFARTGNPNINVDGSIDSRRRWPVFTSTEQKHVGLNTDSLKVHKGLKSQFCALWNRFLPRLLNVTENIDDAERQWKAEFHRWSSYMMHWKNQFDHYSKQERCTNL
Parameter measured: inhibition at 100 µM (%)
Kindly provide the numeric value in % only, without the unit symbol.

Example cases with answers are listed next.
                                   compound    parameter_measured  value
0  C[N+](C)(C)CCOC(=O)c1cc(CBr)ccc1CBr.[I-] [2,5 Bromomethyl-]  inhibition at 100 µM     80
1  C[N+](C)(C)CCOC(=O)c1ccc(CBr)c(CBr)c1 [3,4 Bromomethyl-]  inhibition at 100 µM     90
2  C[N+](C)(C)CCOC(=O)c1cc(CBr)cc(CBr)c1.[I-] [3,5 Bromomethyl-]  inhibition at 100 µM     90

Turning now to a further record.
Data request, read-out inhibition at 100 µM, for C[N+](C)(C)CCOC(=O)c1cccc(CBr)c1CBr.[I-] [2,3 Bromomethyl-]
40

----------
# inhibition at 100 µM per record follows
target: electric eel cholinesterase (Type V) (Electrophorus electricus); experiment: Inhibition of electric eel cholinesterase (Type V) by substituted benzoyl cholines (method of Rappaport et al.); type: biochemical; conditions: 40 min; Formyl- reagent type, concentration 10^-^4 M; incubated with enzyme at room temperature (22°) for 40 minutes
Quick reminder: number only, in %, skip the unit.

>>> print(df.to_string())
                                   molecule  value
0  C[N+](C)(C)CCOC(=O)c1ccc(C=O)cc1C=O.[I-] [2,4 Formyl-, 2,4-diformylbenzoyl choline iodide]     50
1  C[N+](C)(C)CCOC(=O)c1ccc(C=O)c(C=O)c1.[I-] [3,4 Formyl-, 3,4-diformylbenzoyl choline iodide]     25
2  C[N+](C)(C)CCOC(=O)c1cccc(C=O)c1C=O.[I-] [2,3 Formyl-, 2,3-diformylbenzoyl choline iodide]     50

Hi! What's the reported inhibition at 100 µM for C[N+](C)(C)CCOC(=O)c1cc(C=O)ccc1C=O.[I-] [2,5 Formyl-, 2,5-diformylbenzoyl choline iodide] on electric eel cholinesterase (Type V) (Electrophorus electricus)?
50

----------
Biological target: electric eel cholinesterase (Type V) (Electrophorus electricus)
Test: Inhibition of electric eel cholinesterase (Type V) by substituted benzoyl cholines (method of Rappaport et al.)
Type: biochemical
Settings: Bromomethyl- reagent type, concentration 10^-^4 M; incubated with enzyme at room temperature (22°) for 40 minutes
Procedure: As stated heretofore, the compounds of the present invention when tested for inhibition of eel cholinesterase show good activity at rather low concentrations. Inhibition of cholinesterase activity of generally recognized as having positive correlation which insecticidal activity. INHIBITION OF ELECTRIC EEL CHOLINESTERASE (TYPE V) BY SUBSTITUTED BENZOYL CHOLINES Activity Measurement Method: *Reagent incubated with enzyme at room temperature (22°) for 40
Parameter measured: INHIBITION

In [3]: df
Out[3]:
                                   molecule     value
0  C[N+](C)(C)CCOC(=O)c1ccc(CBr)cc1.[I-] [para Bromomethyl-, para-bromomethyl benzoyl choline iodide]  Complete
1  C[N+](C)(C)CCOC(=O)c1ccc(CBr)cc1CBr.[I-]  Complete
2  C[N+](C)(C)CCOC(=O)c1cccc(CBr)c1.[I-] [meta Bromomethyl-, m-bromomethyl benzoyl choline iodide]      None
3  C[N+](C)(C)CCOC(=O)c1ccccc1CBr.[I-] [ortho Bromomethyl-, o-bromomethyl benzoyl choline iodide]      None

----------
target: electric eel cholinesterase (Type V) (Electrophorus electricus, UniProt O42275); assay: Inhibition of electric eel cholinesterase (Type V) by substituted benzoyl cholines (method of Rappaport et al.); format: biochemical; settings: Formyl- reagent type, concentration 10^-^4 M; incubated with enzyme at room temperature (22°) for 40 minutes
Parameter measured: INHIBITION

>>> print(df.to_string())
                                   compound  value
0  C[N+](C)(C)CCOC(=O)c1ccc(C=O)cc1.[Br-] [para Formyl-, p-Formyl benzoyl choline bromide]   None
1  C[N+](C)(C)CCOC(=O)c1cccc(C=O)c1.[I-] [meta Formyl-, m-formylbenzoyl choline iodide]   None
2  C[N+](C)(C)CCOC(=O)c1ccccc1C=O.[I-] [ortho Formyl-, o-formylbenzoyl choline iodide]   None

----------
Molecular target: electric eel cholinesterase (Type V) (Electrophorus electricus)
Assay: Inhibition of electric eel cholinesterase (Type V) by substituted benzoyl cholines (method of Rappaport et al.)
Assay type: biochemical
Conditions: Bromomethyl- reagent type, concentration 10^-^6 M; incubated with enzyme at room temperature (22°) for 40 minutes
Procedure: As stated heretofore, the compounds of the present invention when tested for inhibition of eel cholinesterase show good activity at rather low concentrations. Inhibition of cholinesterase activity of generally recognized as having positive correlation which insecticidal activity. INHIBITION OF ELECTRIC EEL CHOLINESTERASE (TYPE V) BY SUBSTITUTED BENZOYL CHOLINES Activity Measurement Method: *Reagent incubated with enzyme at room temperature (22°) for 40
Parameter measured: INHIBITION

>>> print(df.to_string())
                                   compound  value
0  C[N+](C)(C)CCOC(=O)c1ccc(CBr)cc1CBr.[I-] [2,4 Bromomethyl-]   None
1  C[N+](C)(C)CCOC(=O)c1ccccc1CBr.[I-] [ortho Bromomethyl-, o-bromomethyl benzoyl choline iodide]   None
2  C[N+](C)(C)CCOC(=O)c1cccc(CBr)c1.[I-] [meta Bromomethyl-, m-bromomethyl benzoyl choline iodide]   None

All values here come from patent US3959351A.
